System Under Test: FhCB3 (Fasciola hepatica)
Protocol Summary: Inhibition of recombinant FhCB3, fluorogenic substrate assay (Z-Val-Ile-Arg-AMC)
Format: biochemical
Exercise: state measured pKi for each of the compounds provided.
Please report pKi as the negative decimal logarithm of the molar concentration, giving only the number.

Per the records, this compound ( CCCNC(=O)[C@H]1O[C@@H]1C(=O)N[C@H](C(=O)N1CCC[C@H]1C(=O)OC)[C@@H](C)CC [Ca074ME] ) has pKi equal to 6.11

Per the records, this compound ( CC(C)C[C@H](NC(=O)[C@H](Cc1ccccc1)NC(=O)OCc1ccccc1)C(=O)C=O ) has pKi equal to 6.16

Per the records, this compound ( C[C@H](NC(=O)[C@H](Cc1ccccc1)NC(=O)OCc1ccccc1)C(=O)CF ) has pKi equal to 6.61

* * *

System Under Test: FhCB3 (Fasciola hepatica, UniProt A7UNB2)
Sequence (A7UNB2 entry or part of it): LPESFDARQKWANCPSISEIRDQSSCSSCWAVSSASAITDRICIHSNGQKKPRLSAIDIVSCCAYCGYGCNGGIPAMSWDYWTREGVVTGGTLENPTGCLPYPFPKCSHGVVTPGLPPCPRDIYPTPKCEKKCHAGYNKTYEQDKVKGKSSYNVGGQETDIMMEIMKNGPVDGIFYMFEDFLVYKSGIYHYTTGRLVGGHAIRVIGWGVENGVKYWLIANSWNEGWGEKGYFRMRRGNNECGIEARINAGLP
Protocol Summary: Inhibition of recombinant FhCB3, fluorogenic substrate assay (Z-Val-Ile-Arg-AMC)
Assay type: biochemical
Details: recombinant FhCB3 140 nM, 30 min pre-incubation, substrate Z-Val-Ile-Arg-AMC at KM, optimum pH; ± SEM; read-out: inhibition constant Ki
Where a SMILES comes first, the peptide text is derived from it. The star is where a group is joined. Cbz = O=C(OCc1ccccc1)*
Outcome Measure: pKi
Please report pKi as the negative decimal logarithm of the molar concentration, giving only the number.

Per the records, this compound ( O=CC(Cc1ccc(O)cc1)NC(=O)C(Cc1ccccc1)NC(=O)OCc1ccccc1 (stereo not drawn) [LII] (Cbz-Phe-Tyr-aldehyde; configuration not given here) ) has pKi equal to 6.68

Per the records, this compound ( CCCNC(=O)[C@H]1O[C@@H]1C(=O)N[C@H](C(=O)N1CCC[C@H]1C(=O)O)[C@@H](C)CC [Ca074] ) has pKi equal to 6.27

Per the records, this compound ( CC(C)C[C@H](NC(=O)OCc1ccccc1)C(=O)NNC(=O)NNC(=O)[C@H](CC(C)C)NC(=O)C(Cc1ccccc1)NC(=O)OC(C)(C)C (stereo partly drawn) [KII] ) has pKi equal to 6.64

* * *

System Under Test: UniProt A0A879R2T5
Sequence (A0A879R2T5 entry or part of it): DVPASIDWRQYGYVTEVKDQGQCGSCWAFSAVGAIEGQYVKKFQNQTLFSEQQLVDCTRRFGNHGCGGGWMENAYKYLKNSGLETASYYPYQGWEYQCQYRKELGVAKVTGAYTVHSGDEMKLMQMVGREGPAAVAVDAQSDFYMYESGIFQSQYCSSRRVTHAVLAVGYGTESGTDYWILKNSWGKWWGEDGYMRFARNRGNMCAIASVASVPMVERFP
Protocol Summary: Inhibition of recombinant FhCL3, fluorogenic substrate assay (Z-Gly-Pro-Arg-AMC)
Format: biochemical
Details: FhCL3; inhibitor 1000-15 nM
Outcome Measure: inhibition of enzymatic activity (inhibitor screen, Figure 5), in words

Answered examples (4):
>  <Compound>
CC(C)C[C@H](NC(=O)OCc1ccccc1)C(=O)NCC(=O)CNC(=O)[C@H](CC(C)C)NC(=O)OCc1ccccc1

>  <Endpoint Value>
reduced

$$$$
>  <Compound>
CCCNC(=O)[C@H]1O[C@@H]1C(=O)N[C@H](C(=O)N1CCC[C@H]1C(=O)OC)[C@@H](C)CC [Ca074ME]

>  <Endpoint Value>
poor inhibitors

$$$$
>  <Compound>
CCCNC(=O)[C@H]1O[C@@H]1C(=O)N[C@H](C(=O)N1CCC[C@H]1C(=O)O)[C@@H](C)CC

>  <Endpoint Value>
poor inhibitors

$$$$
>  <Compound>
CC(C)C[C@H](NC(=O)OCc1ccccc1)C(=O)NNC(=O)NNC(=O)[C@H](CC(C)C)NC(=O)C(Cc1ccccc1)NC(=O)OC(C)(C)C (stereo partly shown)

>  <Endpoint Value>
reduced

$$$$

Next:
Response field inhibition of enzymatic activity (inhibitor screen, Figure 5), in words (UniProt A0A879R2T5) for item CC(C)C[C@H](NC(=O)OCc1ccccc1)C(=O)NNC(=O)NNC(=O)[C@H](CC(C)C)NC(=O)C(N)Cc1ccccc1 (stereo partly shown) : reduced
